A collection of binders and their measured Fold change in Kd vs. H0L0
- STUDY_TARGET: T1, CD25 (R&D systems cat. #223-2A/CF) (UniProt P01589 22-213, limits assumed)
- T1 construct: Bought soluble protein
- T1 sequence (looked up): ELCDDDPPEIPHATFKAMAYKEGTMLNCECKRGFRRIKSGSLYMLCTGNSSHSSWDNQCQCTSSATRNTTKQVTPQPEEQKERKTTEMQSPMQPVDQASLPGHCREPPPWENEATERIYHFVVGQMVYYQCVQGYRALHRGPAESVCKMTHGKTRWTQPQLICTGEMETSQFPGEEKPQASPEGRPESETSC
- TEST_DETAILS: Biacore (SPR); antibody captured on Protein A, CD25 injected
Please respond with the number in fold and leave the unit unwritten.

Check out these entries, answers already filled in.
# BINDER, TEST_READOUT, UNIT_NAME, RECORDED_VALUE
measured = [
    ("anti-CD25 H1.22L1.20 (antibody, V domains shown) VH: QVQLVQSGAEVKKPGASVKVSCKASGYTFTSYRMHWVRQAPGQGLEWMGWINPNSGGTNYAQKFQGRVTITRDTSISTAYMELSRLRSDDTAVYYCARGGGVFDYWGQGTLVTVSS VL: EIVLTQSPATLSLSPGERATLSCRASQSVSYLHWYQQKPGQAPRLLIYTTSNRATGIPARFSGSGSGTDFTLTISSLEPEDFAVYYCHQRSTYPLTFGSGTKLEIK", "Fold change in Kd vs. H0L0", "fold", 1.1),
    ("anti-CD25 H1.22L1.43 (antibody, V domains shown) VH: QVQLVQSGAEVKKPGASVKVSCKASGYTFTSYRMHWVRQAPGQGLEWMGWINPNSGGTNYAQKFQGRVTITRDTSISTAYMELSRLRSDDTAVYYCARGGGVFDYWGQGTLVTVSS VL: EIVLTQSPATLSLSPGERATLSCRASQSVSYLHWYQQKPGQAPRLLIYTTSNRATGIPARFSGSGSGTDYTLTISSLQPEDFAVYYCHQRSTYPLTFGSGTKLEIK", "Fold change in Kd vs. H0L0", "fold", -1.1),
]

Below: the item to evaluate.
The binder listed as anti-CD25 H1L1.43 (antibody, V domains shown, also called VL combination variant L1.43 paired with H1) VH: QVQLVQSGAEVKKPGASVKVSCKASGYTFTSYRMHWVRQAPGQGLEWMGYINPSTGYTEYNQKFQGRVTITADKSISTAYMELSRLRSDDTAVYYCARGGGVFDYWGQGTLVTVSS VL: EIVLTQSPATLSLSPGERATLSCRASQSVSYLHWYQQKPGQAPRLLIYTTSNRATGIPARFSGSGSGTDYTLTISSLQPEDFAVYYCHQRSTYPLTFGSGTKLEIK shows Fold change in Kd vs. H0L0 equal to -5

The origin of these recorded values is patent US20100004431A1.
